target: Human immunodeficiency virus type 1 reverse transcriptase (Human immunodeficiency virus 1); assay: Inhibitory concentration required to inhibit recombinant HIV-1 reverse transcriptase
observed.property: pIC50
Numbers only, as −log10 of the molar value.

Solved cases (4 shown):
Name the recorded pIC50 of the compound listed here: `Cc1cn([C@@H]2O[C@H](CO[Si](C)(C)C(C)(C)C)[C@@]3(OS(=O)(=O)C=C3N)[C@H]2O[Si](C)(C)C(C)(C)C)c(=O)n(CCCO)c1=O` 5.52

Hello, please tell me recorded pIC50 for this one: `Cc1cn([C@@H]2O[C@H](CO[Si](C)(C)C(C)(C)C)[C@@]3(OS(=O)(=O)C=C3N)[C@H]2O[Si](C)(C)C(C)(C)C)c(=O)n(CCCN(C)C)c1=O` 5.18

Please give the documented pIC50 of `COC(=O)CCCCn1c(=O)c(C)cn([C@@H]2O[C@H](CO[Si](C)(C)C(C)(C)C)[C@@]3(OS(=O)(=O)C=C3N)[C@H]2O[Si](C)(C)C(C)(C)C)c1=O` 3.49

For the compound `CNC(=O)CCCCCn1c(=O)c(C)cn([C@@H]2O[C@H](CO[Si](C)(C)C(C)(C)C)[C@@]3(OS(=O)(=O)C=C3N)[C@H]2O[Si](C)(C)C(C)(C)C)c1=O` , report pIC50. 5.62

***
Output pIC50 of `CNC(=O)CCCCn1c(=O)c(C)cn([C@@H]2O[C@H](CO[Si](C)(C)C(C)(C)C)[C@@]3(OS(=O)(=O)C=C3N)[C@H]2O[Si](C)(C)C(C)(C)C)c1=O` 6.25

###

test system: Human immunodeficiency virus 1; experiment: Effective concentration required to inhibit HIV-1/138K induced cytopathicity in human CEM cell line; format: functional, organism-based; details: Human immunodeficiency virus 1, CCRF-CEM
observed.property: EC50

Illustrative cases are given below, each with its answer.
Jot down EC50 (Human immunodeficiency virus 1) of `Cc1cn([C@@H]2O[C@H](CO[Si](C)(C)C(C)(C)C)[C@@]3(OS(=O)(=O)C=C3N)[C@H]2O[Si](C)(C)C(C)(C)C)c(=O)n(CC(=O)N(C)C)c1=O` . 4.5 µM

Please indicate recorded EC50 of `Cc1cn([C@@H]2O[C@H](CO[Si](C)(C)C(C)(C)C)[C@@]3(OS(=O)(=O)C=C3N)[C@H]2O[Si](C)(C)C(C)(C)C)c(=O)n(CCc2cccc3cc[nH]c23)c1=O` measured with Human immunodeficiency virus 1. > 50 µM

Return reported EC50 for target or system Human immunodeficiency virus 1, item `CNC(=O)CCCCCn1c(=O)c(C)cn([C@@H]2O[C@H](CO[Si](C)(C)C(C)(C)C)[C@@]3(OS(=O)(=O)C=C3N)[C@H]2O[Si](C)(C)C(C)(C)C)c1=O` . 10 µM

GET EC50 where system = Human immunodeficiency virus 1 and item = `COCCn1c(=O)c(C)cn([C@@H]2O[C@H](CO[Si](C)(C)C(C)(C)C)[C@@]3(OS(=O)(=O)C=C3N)[C@H]2O[Si](C)(C)C(C)(C)C)c1=O` > 10 µM

For Human immunodeficiency virus 1, give the measured EC50 of the entry `Cc1cn([C@@H]2O[C@H](CO[Si](C)(C)C(C)(C)C)[C@@]3(OS(=O)(=O)C=C3N)[C@H]2O[Si](C)(C)C(C)(C)C)c(=O)n(CC(N)=O)c1=O` > 50 µM

Please turn your attention to the following entry.
// output EC50; input Cc1cn([C@@H]2O[C@H](CO[Si](C)(C)C(C)(C)C)C3(OS(=O)(=O)C=C3N)[C@H]2O[Si](C)(C)C(C)(C)C)c(=O)[nH]c1=O (stereo partly specified) ; system Human immunodeficiency virus 1 > 10 µM

###

system: Human immunodeficiency virus 1; test: Effective concentration required to inhibit HIV-1 induced cytopathicity in human MT-4 cell line; format: functional, organism-based; settings: Human immunodeficiency virus 1, MT4
observed.property: pEC50
Give bare numbers, as −log10 of the molar value.

Example entries and their recorded answers appear below.
Give pEC50 for the following compound: `CNC(=O)CCCCCn1c(=O)c(C)cn([C@@H]2O[C@H](CO[Si](C)(C)C(C)(C)C)[C@@]3(OS(=O)(=O)C=C3N)[C@H]2O[Si](C)(C)C(C)(C)C)c1=O` 7.52

Given the compound `Cc1cn([C@@H]2O[C@H](CO[Si](C)(C)C(C)(C)C)[C@@]3(OS(=O)(=O)C=C3N)[C@H]2O[Si](C)(C)C(C)(C)C)c(=O)n(CCCCO)c1=O` , write its reported pEC50. 6.77

Answer with the recorded pEC50 for the compound listed here: `Cc1cn([C@@H]2O[C@H](CO[Si](C)(C)C(C)(C)C)[C@@]3(OS(=O)(=O)C=C3N)[C@H]2O[Si](C)(C)C(C)(C)C)c(=O)n(CC(=O)N(C)C)c1=O` 7.40

Retrieve pEC50 measured for `Cc1cn([C@@H]2O[C@H](CO[Si](C)(C)C(C)(C)C)[C@@]3(OS(=O)(=O)C=C3N)[C@H]2O[Si](C)(C)C(C)(C)C)c(=O)n(CCCN2C(=O)c3ccccc3C2=O)c1=O` and print it. 6.54

For `CNC(=O)Cn1c(=O)c(C)cn([C@@H]2O[C@H](CO[Si](C)(C)C(C)(C)C)[C@@]3(OS(=O)(=O)C=C3N)[C@H]2O[Si](C)(C)C(C)(C)C)c1=O` , write its pEC50. 7.52

Lab note: next compound to report on.
Supply reported pEC50 belonging to this compound: `COC(=O)Cn1c(=O)c(C)cn([C@@H]2O[C@H](CO[Si](C)(C)C(C)(C)C)[C@@]3(OS(=O)(=O)C=C3N)[C@H]2O[Si](C)(C)C(C)(C)C)c1=O` 6.96

###

system: CCRF-CEM; assay: Cytostatic concentration required to inhibit cell proliferation in human CEM cell line; type: functional
Provide the reported CC50 of each item.
One number for each entry, in µM.

Look up and report CC50, with CCRF-CEM as system, for `Cc1cn([C@@H]2O[C@H](CO[Si](C)(C)C(C)(C)C)[C@@]3(OS(=O)(=O)C=C3N)[C@H]2O[Si](C)(C)C(C)(C)C)c(=O)n(Cc2ccccc2)c1=O` 53

Report CC50 under test system CCRF-CEM for `COCCn1c(=O)c(C)cn([C@@H]2O[C@H](CO[Si](C)(C)C(C)(C)C)[C@@]3(OS(=O)(=O)C=C3N)[C@H]2O[Si](C)(C)C(C)(C)C)c1=O` . 38.8

Print CCRF-CEM CC50 for `Cc1cn([C@@H]2O[C@H](CO[Si](C)(C)C(C)(C)C)[C@@]3(OS(=O)(=O)C=C3N)[C@H]2O[Si](C)(C)C(C)(C)C)c(=O)n(CCCN(C)C)c1=O` . 10.4

Provide CC50 values for the following items, in order.
1. Cc1cn([C@@H]2O[C@H](CO[Si](C)(C)C(C)(C)C)[C@@]3(OS(=O)(=O)C=C3N)[C@H]2O[Si](C)(C)C(C)(C)C)c(=O)n(CCCNC(=O)OCc2ccccc2)c1=O
2. Cc1cn([C@@H]2O[C@H](CO[Si](C)(C)C(C)(C)C)[C@@]3(OS(=O)(=O)C=C3N)[C@H]2O[Si](C)(C)C(C)(C)C)c(=O)n(CCC[N+](C)(C)C)c1=O.[I-]

229
110

Quick request: CC50 for each listed item, please.
1. Cc1cn([C@@H]2O[C@H](CO[Si](C)(C)C(C)(C)C)[C@@]3(OS(=O)(=O)C=C3N)[C@H]2O[Si](C)(C)C(C)(C)C)c(=O)n(CCCN)c1=O
2. Cc1cn([C@@H]2O[C@H](CO[Si](C)(C)C(C)(C)C)[C@@]3(OS(=O)(=O)C=C3N)[C@H]2O[Si](C)(C)C(C)(C)C)c(=O)n(CC(=O)OCc2ccccc2)c1=O
3. Cc1cn([C@@H]2O[C@H](CO[Si](C)(C)C(C)(C)C)C3(OS(=O)(=O)C=C3N)[C@H]2O[Si](C)(C)C(C)(C)C)c(=O)[nH]c1=O (stereo partly specified)

1: 11.6; 2: 12.9; 3: 12

###

system: Human immunodeficiency virus 2; assay: Effective concentration required to inhibit HIV-2 induced cytopathicity in human MT-4 cell line; assay type: functional, organism-based; conditions: Human immunodeficiency virus 2, MT4
pEC50: −log10 of the molar value.
observed.property: pEC50

Guide cases for pEC50, answers given:
# return recorded pEC50 for entry `CCCCOC(=O)CN(CCCn1c(=O)c(C)cn([C@@H]2O[C@H](CO[Si](C)(C)C(C)(C)C)[C@@]3(OS(=O)(=O)C=C3N)[C@H]2O[Si](C)(C)C(C)(C)C)c1=O)CC(=O)OCCCC` < 3.60

Give pEC50 for `CNC(=O)CCCCn1c(=O)c(C)cn([C@@H]2O[C@H](CO[Si](C)(C)C(C)(C)C)[C@@]3(OS(=O)(=O)C=C3N)[C@H]2O[Si](C)(C)C(C)(C)C)c1=O` < 5.00

Kindly indicate its recorded pEC50. Item: `Cc1cn([C@@H]2O[C@H](CO[Si](C)(C)C(C)(C)C)[C@@]3(OS(=O)(=O)C=C3N)[C@H]2O[Si](C)(C)C(C)(C)C)c(=O)n(CC(N)=O)c1=O` < 5.00

Please give measured pEC50 of the following entry: `Cc1cn([C@@H]2O[C@H](CO[Si](C)(C)C(C)(C)C)[C@@]3(OS(=O)(=O)C=C3N)[C@H]2O[Si](C)(C)C(C)(C)C)c(=O)n(CCCNC(=O)OCc2ccccc2)c1=O` < 4.30

More entries:
Provide pEC50 value for the following molecule: `COC(=O)/C=C/Cn1c(=O)c(C)cn([C@@H]2O[C@H](CO[Si](C)(C)C(C)(C)C)[C@@]3(OS(=O)(=O)C=C3N)[C@H]2O[Si](C)(C)C(C)(C)C)c1=O` < 3.60

Attribution: ChEMBL document CHEMBL1141126
